Hey, just so you know, these numbers are from patent US7329737.

Listing of recorded pKd by entry.
molecular target: T1, hK1 (human tissue kallikrein 1), recombinant (human, UniProt P06870 25-262); assay: SPR
T1 construct: Expressed in P. pastoris from KLK1 cDNA and purified; enzymatically active; also called KLK1; Recombinant (Pichia) Kallikrein
Scale: negative log10 of molar concentration, which is what pKd denotes.

{"BINDER": "M0136-E10 (Fab, V domains shown) VH: EVQLLESGGGLVQPGGSLRLSCAASGFTFSPYNMAWVRQAPGKGLEWVSSIWPSGGRTRYADSVKGRFTISRDNSKNTLYLQMNSLRAEDTAVYYCAKGVRSSGLLERGRVYDAFDIWGQGTMVTVSS VL: DIQMTQSPGTLSLSPGERATLSCRASQSVTTFLAWYQRKPGQAPRLLIYGASSRAADIPDRFSGSGSGTDFTLTISRLEPEDLAVYYCQQYRFSPPTFGPGTTVDIRR", "pKd": 8.02}
{"BINDER": "M0095-G09 (Fab, V domains shown) VH: EVQLLESGGGLVQPGGSLRLSCAASGFTFSNYNMHWVRQAPGKGLEWVSVIYPSGGYTVYADSVKGRFTISRDNSKNTLYLQMNSLRAEDTAVYYCARRGNWGGIDYWGQGTLVTVSS VL: DIQMTQSPSSLSASVGDRVTITCRASQSISNWLAWYQQKPGKAPKLLIYKASTLQTGVPSRFSGSGSGTEFSLTISSLQPDDFATYYCQQTYSAPFNFGPGTKVDIKR", "pKd": 7.73}
{"BINDER": "M0103-F07 (Fab, V domains shown) VH: EVQLLESGGGLVQPGGSLRLSCAASGFTFSLYAMHWVRQAPGKGLEWVSSIRPSGGLTKYADSVKGRFTISRDNSKNTLYLQMNSLRAEDTAVYYCARVGVWYGMDVWGQGTTVTVSS VL: AQSALTQPASVSGSPGQSITISCTGTSNDIGRTNYVSWYRQDPGRAPKLILFEVSNRPSGISNRFSASKSGSTASLTISGLQADDESDYYCSSCTTAPVCVFGNGTRVTVLG", "pKd": 7.88}
{"BINDER": "M0139-E12 (Fab, V domains shown) VH: EVQLLESGGGLVQPGGSLRLSCAASGFTFSWYSMNWVRQAPGKGLEWVSSIGPSGGGTKYADSVKGRFTISRDNSKNTLYLQMNSLRAEDTAVYYCASRGQRKQWLPPNGAFDIWGQGTMVTVSS VL: DIQMTQSPSSVSASVGDRVTMTCRASRGISNWLAWYQQKPGKAPELLIHSASTLHAGVPSRFSGSGSGTDFTLTISSLQPGDFATYYCQEGNSFPYTFGQGTNLQIKR", "pKd": 8.73}

Entry M0105-B06 (Fab, V domains shown) VH: EVQLLESGGGLVQPGGSLRLSCAASGFTFSHYAMGWVRQAPGKGLEWVSRIWPSGGHTQYADSVKGRFTISRDNSKNTLYLQMNSLRAEDTAMYYCATGYSSTWGAFDIWGQGTMVTVSS VL: DIQMTQSPSSLSASVGDRVTLTCRASQSIANYLNWYQQKPGKAPKLLVYAASRLHSGVPSRFSGRGSGTDFTLTITSLEPDDLATYYCQQSHASPLTFGGGTKVEIKR , pKd reported as 8.06
